- experimental-system: 5-HT2C (Homo sapiens)
- Sequence (P28335 33-458): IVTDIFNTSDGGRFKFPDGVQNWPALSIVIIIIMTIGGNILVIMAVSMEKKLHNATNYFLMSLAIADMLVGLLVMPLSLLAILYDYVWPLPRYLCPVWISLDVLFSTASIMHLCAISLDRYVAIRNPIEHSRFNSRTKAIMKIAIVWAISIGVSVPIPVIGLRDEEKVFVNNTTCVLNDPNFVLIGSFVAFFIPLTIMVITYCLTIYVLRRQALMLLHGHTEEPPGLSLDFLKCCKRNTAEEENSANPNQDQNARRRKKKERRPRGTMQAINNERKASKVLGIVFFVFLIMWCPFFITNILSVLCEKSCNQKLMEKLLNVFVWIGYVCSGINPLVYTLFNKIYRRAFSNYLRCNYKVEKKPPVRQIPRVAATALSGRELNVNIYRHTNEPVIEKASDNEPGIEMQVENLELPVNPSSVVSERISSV
- measurement-notes: BRET Gq dissociation, 5-HT2C
- Assay type: cell-based
- Design: expressed in transfected cells; host or cells: HEK293T, transient
observation-type: pEC50
Numbers only, as −log10 of the molar value.

Example compounds with recorded pEC50:
COc1cc(CC(C)N)c(OC)cc1I.Cl (racemic) [(±)-DOI, hydrochloride, reference compound] :: 9.08
COc1cc([N+](=O)[O-])c(OC)cc1CCNCc1ccccc1Br [25N-NBBr (9)] :: 7.51

Prompt: Would you mind telling me what pEC50 value was observed for COc1cc([N+](=O)[O-])c(OC)cc1CCNCc1ccccc1[N+](=O)[O-] [25N-NBNO2 (15)] ?
Completion: 6.83
